Reported Octet response values for the following binders.
- Assayed System: T1, RL peptide (Octet assay of PS621 variants)
- T1 construct: RXKLDEESILKQK with X = L
- T1 peptide: RLKLDEESILKQK
- Protocol Summary: Octet (BLI), 30 C
The answer should be written as a number, with no unit following it.

Use these answered entries as a reference point.
| Binder | Parameter Measured | Reported Measurement |
| --- | --- | --- |
| PS1117 (designed binder, Variant of PS621) MHSKFSHAGRICGAKFKVGEPIYRCKECSFDDTCVLCVNCFNPKDHLGHHVYTTICTEFNNGICDCGDKEAWNHTLFCKAEEG | Octet response | 9 |
| PS1101 (designed binder, Variant of PS621) MHSKFSHAGRICGAKFKVREPIYRCKECSFDDTCVLCVNCFNPKDHTGHHVYTTICTEFNNGICDCGDKEAWNHTLFCKAEEG | Octet response | 7.7 |

**Query** Please give the measured Octet response for this binder: PS1122 (designed binder, Variant of PS621 (T47L, I63E, E70T)) MHSKFSHAGRICGAKFKVGEPIYRCKECSFDDTCVLCVNCFNPKDHLGHHVYTTICTEFNNGECDCGDKTAWNHTLFCKAEEG
**Result** 11.2

**Query** Requested field: Octet response. Item: PS1115 (designed binder, Variant of PS621) MHSKFSHAGRICGAKFKVGEPIYRCKECSFDDTCVLCVNCFNPKDHRGHHVYTTICTERNNGICDCGDKEAWNHELFCKAEEG
**Result** 11.8

**Query** Which Octet response value belongs to PS1105 (designed binder, Variant of PS621) MHSKFSHAGRICGAKFKVGEPIYRCKECSFDDTCVLCVNCFNPKDHTRHHVYTTICTEFNNGICDCGDKEAWNHTLFCKAEEG ?
**Result** 7.5
